Hello, the source for this data is patent US11278550B2, in case you need it.

- Tested on: maternal Snrpn-EGFP MEFs
- PROTOCOL TEXT: High content screening / concentration response of Snrpn-EGFP unsilencing
- Assay type: cell-based, mouse
- TEST PARAMETERS: mS-EGFP/p+ MEFs
METRIC NAME: activation of S-EGFP

Example results:
{"columns": ["COMPOUND", "ASSAY VALUE"],
 "data": [
  ["CC(/C=C/C(=O)NO)=C\\[C@@H](C)C(=O)c1ccc(N(C)C)cc1 [trichostatin A, reference compound]", "did not have an effect"],
  ["O=C(CCCCCCC(=O)Nc1ccccc1)NO [vorinostat, suberoylanilide hydroxamic acid, reference compound]", "did not have an effect"],
  ["CCCC(CCC)C(=O)O [valproic acid, reference compound]", "did not have an effect"],
  ["COc1cc2c(NC3CCN(C(C)C)CC3)nc(C3CCCCC3)nc2cc1OCCCN1CCCC1", "active"],
  ["C[S+](CC[C@H](N)C(=O)O)C[C@H]1O[C@@H](n2cnc3c(N)ncnc32)[C@H](O)[C@@H]1O (some centres unmarked) [S-adenosyl-methionine, reference compound]", "did not have an effect"]
]}

Problem: Fill in the recorded activation of S-EGFP for this compound, with maternal Snrpn-EGFP MEFs as test system: COc1cc2c(NC3CCN(C(C)C)CC3)nc(N3CCC(F)(F)CC3)nc2cc1OCCCN1CCCC1
Result: active

Problem: Query Nc1ccccc1NC(=O)c1ccc(CNC(=O)OCc2cccnc2)cc1 [entinostat, reference compound] next
Result: did not have an effect
